# assay.system: Solute carrier family 2, facilitated glucose transporter member 1 (Homo sapiens) (UniProt P11166)
# Sequence (P11166 whole entry): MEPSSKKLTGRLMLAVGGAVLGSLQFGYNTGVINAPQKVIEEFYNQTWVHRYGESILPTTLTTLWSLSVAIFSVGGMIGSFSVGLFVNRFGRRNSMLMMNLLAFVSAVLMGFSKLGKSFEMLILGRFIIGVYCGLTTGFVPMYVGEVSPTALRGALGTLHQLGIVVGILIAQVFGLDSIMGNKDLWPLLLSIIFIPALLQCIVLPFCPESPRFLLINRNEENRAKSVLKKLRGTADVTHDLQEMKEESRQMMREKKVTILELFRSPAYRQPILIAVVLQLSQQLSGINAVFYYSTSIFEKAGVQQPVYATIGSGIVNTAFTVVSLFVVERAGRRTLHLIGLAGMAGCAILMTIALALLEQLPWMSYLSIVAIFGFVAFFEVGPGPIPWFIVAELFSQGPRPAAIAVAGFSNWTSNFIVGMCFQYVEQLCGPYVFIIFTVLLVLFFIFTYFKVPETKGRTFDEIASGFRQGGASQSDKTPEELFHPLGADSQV
# assay.info: ST_JUDE_LEISH: Cytotoxicity at 2uM final concentration against transgenic Leishmania Mexicana promastigotes LmGLUT1 that are glucose transport deficient and complemented with the human glucose transporter GLUT1. Activity is measured by DNA content using SYBR green in vitro
# Assay type: functional
quantity: inhibition (%)
Provide only the numeric value, understood in %.

For orientation, consider the following solved cases.
compound | inhibition (%)
O=C(Nc1ccc(-c2cccc(CN3CCC(O)CC3)c2)cc1)c1cccc(Cl)c1 | 24.1
COc1ccc2ncc(Cl)c(CCN3CCC(NCc4ccc5c(n4)NC(=O)CS5)CC3)c2c1 | 7.16

Which measured inhibition value corresponds to `CCn1cc2c3c(cc(C(=O)N[C@@H](Cc4ccccc4)[C@H](O)CNCc4cccc(OC)c4)cc31)N(C)S(=O)(=O)CC2` ?
1.89
